Test system: Fibroblast
Assay: Multiplex assay against human fibroblast
Assay type: toxicity, cell-based
Conditions: 48 h, 10 µM, compound concentration 10 uM, replicate 1

>  <Compound>
Cc1ccc(F)cc1C(=O)Nc1ccc(C(=O)N2Cc3cccn3Cc3ccccc32)c(Cl)c1

>  <Test target>
Fibroblast

>  <Population Apoptotic (%)>
70%

$$$$
>  <Compound>
COc1c(C)cc(NC(=O)c2nn(Cc3ccc(F)cc3)c3c2CN(C(=O)c2ccc[nH]2)C[C@]3(C)C(N)=O)cc1C

>  <Test target>
Fibroblast

>  <Population Apoptotic (%)>
60%

$$$$
>  <Compound>
Cl.Clc1ccc2nsnc2c1NC1=NCCN1 [TIZANIDINE HYDROCHLORIDE]

>  <Test target>
Fibroblast

>  <Population Apoptotic (%)>
69%

$$$$
>  <Compound>
O=C(NCCO)c1cccc(-c2cc(Nc3ccc(OC(F)(F)F)cc3)ncn2)c1

>  <Test target>
Fibroblast

>  <Population Apoptotic (%)>
70%

$$$$
>  <Compound>
COc1ccc2c(c1)C(C(=O)N(Cc1ccc(N(C)C)cc1)c1ccc(C(C)C)cc1)CCC2.Cl (stereo unspecified)

>  <Test target>
Fibroblast

>  <Population Apoptotic (%)>
71%

$$$$
>  <Compound>
CC(C)(C)c1ccc(S(=O)(=O)Nc2ccc(Cl)cc2C(=O)c2cc[n+]([O-])cc2)cc1

>  <Test target>
Fibroblast

>  <Population Apoptotic (%)>
62%

$$$$
>  <Compound>
Cc1ccc(/C(=C\CN2CCCC2)c2ccccn2)cc1

>  <Test target>
Fibroblast

>  <Population Apoptotic (%)>
38%

$$$$
>  <Compound>
Cc1nc2ccc(Oc3ccc(F)cc3)cc2c(=O)n1C[C@H]1CCCN(C(C)C)C1.Cl

>  <Test target>
Fibroblast

>  <Population Apoptotic (%)>
66%

$$$$
>  <Compound>
Cc1ccccc1C(=O)Nc1ccc(C(=O)N2CCCC(N(C)C)c3ccccc32)cc1.Cl (stereo unspecified)

>  <Test target>
Fibroblast

>  <Population Apoptotic (%)>
91%

$$$$
>  <Compound>
CSc1ccccc1N1CCN(CCCCCC(=O)NC2CCCc3ccccc32)CC1.Cl (stereo unspecified)

>  <Test target>
Fibroblast

>  <Population Apoptotic (%)>
91%

$$$$
>  <Compound>
Cc1ccc(C(C)(O)c2nc3ccccc3s2)c(C)c1 (stereo unspecified)

>  <Test target>
Fibroblast

>  <Population Apoptotic (%)>
53%

$$$$
>  <Compound>
Oc1c(CN2CCN(c3ccccn3)CC2)cc(Cl)c2cccnc12

>  <Test target>
Fibroblast

>  <Population Apoptotic (%)>
85%

$$$$
>  <Compound>
CCCN1CCC[C@@H]2Cc3n[nH]cc3C[C@H]21.Cl [QUINPIROLE HYDROCHLORIDE]

>  <Test target>
Fibroblast

>  <Population Apoptotic (%)>
53%

$$$$
>  <Compound>
CCOc1c2c(c(OCC)c3ncccc13)CN(c1ccc(CS(=O)(=O)NC(=O)Cc3ccccc3OC)cc1C)C2=O

>  <Test target>
Fibroblast

>  <Population Apoptotic (%)>
71%

$$$$
>  <Compound>
C[C@H]1[C@H]2CC[C@H]3[C@@H]4CC=C5C[C@@H](N(C)C)CC[C@]5(C)[C@H]4CC[C@]23CN1C

>  <Test target>
Fibroblast

>  <Population Apoptotic (%)>
66%

$$$$
>  <Compound>
CC[C@H]1OC(=O)[C@H](C)[C@@H](O[C@H]2C[C@@](C)(OC)[C@@H](O)[C@H](C)O2)[C@H](C)[C@@H](O[C@@H]2O[C@H](C)C[C@H](N(C)C)[C@H]2O)[C@@]2(C)CC(C)=C(O2)[C@H](C)[C@@H](O)[C@]1(C)O

>  <Test target>
Fibroblast

>  <Population Apoptotic (%)>
84%

$$$$
>  <Compound>
CCCn1c(=O)c2[nH]c(C3CCCC3)nc2n(CCC)c1=O

>  <Test target>
Fibroblast

>  <Population Apoptotic (%)>
57%

$$$$
>  <Compound>
COc1cc(NC(=O)CCN2CCC(OC(=O)Nc3ccccc3-c3ccccc3)CC2)c(Cl)cc1CNC[C@H](O)c1ccc(O)c2[nH]c(=O)ccc12

>  <Test target>
Fibroblast

>  <Population Apoptotic (%)>
74%

$$$$
>  <Compound>
N#Cc1c(N)nc(SCc2csc(-c3ccc(Cl)cc3)n2)c(C#N)c1-c1ccc(OCCO)cc1

>  <Test target>
Fibroblast

>  <Population Apoptotic (%)>
81%

$$$$
>  <Compound>
CN1CCN2c3ncccc3Cc3ccccc3C2C1 (stereo unspecified)

>  <Test target>
Fibroblast

>  <Population Apoptotic (%)>
66%

$$$$
>  <Compound>
CC(=O)NCCc1c(Cc2ccccc2)[nH]c2ccccc12

>  <Test target>
Fibroblast

>  <Population Apoptotic (%)>
80%

$$$$
>  <Compound>
O=C(O)Cc1ccccc1Nc1c(Cl)cccc1Cl

>  <Test target>
Fibroblast

>  <Population Apoptotic (%)>
73%

$$$$
>  <Compound>
CCNC1(C(N)=O)CCN(c2ncnc3c2nc(-c2ccccc2Cl)n3-c2ccc(Cl)cc2)CC1

>  <Test target>
Fibroblast

>  <Population Apoptotic (%)>
78%

$$$$
>  <Compound>
O=C(NCC(=O)N1CC[C@H](N[C@H]2CC[C@@](O)(c3ccc(-c4ncccn4)cn3)CC2)C1)c1cccc(C(F)(F)F)c1

>  <Test target>
Fibroblast

>  <Population Apoptotic (%)>
47%

$$$$
>  <Compound>
c1cc(OCCCN2CCCCC2)ccc1CN1CCCCC1

>  <Test target>
Fibroblast

>  <Population Apoptotic (%)>
55%

$$$$
>  <Compound>
O=C(O)c1cc2ccccc2c(Cc2c(O)c(C(=O)O)cc3ccccc23)c1O

>  <Test target>
Fibroblast

>  <Population Apoptotic (%)>
50%

$$$$
